Experiment: Immunostimulant activity in Balb/c mouse B cells assessed as inhibition of LPS-induced cell proliferation at 10^-6 M after 48 hrs by MTT assay
Format: functional
Entries and their inhibition at 1 µM
endpoint_label: inhibition at 1 µM (%)

chemical_string | reading
Cc1cc(OCc2cnnn2-c2ccc(F)cc2)c(C)c2c1CC[C@H]1[C@H](C)C(=O)O[C@@H]21 | 11.4
COc1c(Br)cc(C)cc1-n1nncc1COc1cc(C)c2c(c1C)[C@@H]1OC(=O)[C@@H](C)[C@@H]1CC2 | 27.1
Cc1cc(OCc2cnnn2-c2ccccc2)c(C)c2c1CC[C@H]1[C@H](C)C(=O)O[C@@H]21 | 30
Cc1cc(OCc2cnnn2-c2ccccc2C(F)(F)F)c(C)c2c1CC[C@H]1[C@H](C)C(=O)O[C@@H]21 | 62.9

###

Assay: Cytotoxicity against in Balb/c mouse B cells at 10^-5 M after 48 hrs by MTT assay
Type: cell-based
Details: 10 µM
endpoint_label: Activity

chemical_string | endpoint_label | reading
Cc1cc(OCc2cnnn2-c2cccc([N+](=O)[O-])c2)c(C)c2c1CC[C@H]1[C@H](C)C(=O)O[C@@H]21 | Activity | Toxic
Cc1cc(OCc2cnnn2-c2ccc(Cl)nc2)c(C)c2c1CC[C@H]1[C@H](C)C(=O)O[C@@H]21 | Activity | Non-toxic
Cc1cc(OCc2cnnn2-c2ccccc2)c(C)c2c1CC[C@H]1[C@H](C)C(=O)O[C@@H]21 | Activity | Toxic
Cc1cc(OCc2cnnn2-c2cccc(C(N)=O)c2)c(C)c2c1CC[C@H]1[C@H](C)C(=O)O[C@@H]21 | Activity | Non-toxic

###

Assay: Cytotoxicity against in Balb/c mouse B cells at 10^-4 M after 48 hrs by MTT assay
Assay type: cell-based
Details: 100 µM
endpoint_label: Activity

chemical_string | reading
Cc1cc(OCc2cnnn2-c2ccc(Br)c3ccccc23)c(C)c2c1CC[C@H]1[C@H](C)C(=O)O[C@@H]21 | Toxic
COc1c(Br)cc(C)cc1-n1nncc1COc1cc(C)c2c(c1C)[C@@H]1OC(=O)[C@@H](C)[C@@H]1CC2 | Non-toxic
COc1ccc2cc(-n3nncc3COc3cc(C)c4c(c3C)[C@@H]3OC(=O)[C@@H](C)[C@@H]3CC4)ccc2c1 | Non-toxic
COc1ccc(-n2nncc2COc2cc(C)c3c(c2C)[C@@H]2OC(=O)[C@@H](C)[C@@H]2CC3)cc1OC | Toxic
Cc1cc(OCc2cnnn2-c2ccc(Br)cc2)c(C)c2c1CC[C@H]1[C@H](C)C(=O)O[C@@H]21 | Non-toxic
Cc1cc(OCc2cnnn2-c2cccc(Br)c2COc2cccc(Br)c2)c(C)c2c1CC[C@H]1[C@H](C)C(=O)O[C@@H]21 | Non-toxic
CC(=O)Oc1cc(C)c2c(c1C)[C@@H]1OC(=O)[C@@H](C)[C@@H]1CC2 | Non-toxic

###

Experiment: Immunosuppressive activity in Balb/c mouse T cells assessed as inhibition of concanavalin A-induced cell proliferation at 10^-6 M after 48 hrs by MTT assay
Assay type: functional
Details: Mus musculus, Balb/c, T-cell, 48 h
Entries and their inhibition at 1 µM

chemical_string | inhibition at 1 µM, %
Cc1cc(OCc2cnnn2-c2ccc(C=O)cc2)c(C)c2c1CC[C@H]1[C@H](C)C(=O)O[C@@H]21 | 5.83
Cc1cc(OCc2cnnn2-c2ccccc2)c(C)c2c1CC[C@H]1[C@H](C)C(=O)O[C@@H]21 | 21.4
Cc1cc(OCc2cnnn2-c2ccc(Br)cc2)c(C)c2c1CC[C@H]1[C@H](C)C(=O)O[C@@H]21 | 1.21
Cc1cc(O)c(C)c2c1CC[C@H]1[C@H](C)C(=O)O[C@@H]21 | 20.7
Cc1cc(OCc2cnnn2-c2ccc3c(c2)OCO3)c(C)c2c1CC[C@H]1[C@H](C)C(=O)O[C@@H]21 | 29.5
COc1cc(-n2nncc2COc2cc(C)c3c(c2C)[C@@H]2OC(=O)[C@@H](C)[C@@H]2CC3)cc(OC)c1OC | 20
COc1ccc(F)c(-n2nncc2COc2cc(C)c3c(c2C)[C@@H]2OC(=O)[C@@H](C)[C@@H]2CC3)c1Br | 14.3
CC(=O)Nc1ccc(-n2nncc2COc2cc(C)c3c(c2C)[C@@H]2OC(=O)[C@@H](C)[C@@H]2CC3)cc1 | 20
Cc1cc(OCc2cnnn2-c2cc(F)ccc2I)c(C)c2c1CC[C@H]1[C@H](C)C(=O)O[C@@H]21 | 21.4
Cc1ccc(I)cc1-n1nncc1COc1cc(C)c2c(c1C)[C@@H]1OC(=O)[C@@H](C)[C@@H]1CC2 | 15.8
Cc1cc(OCc2cnnn2-c2cccc(O)c2)c(C)c2c1CC[C@H]1[C@H](C)C(=O)O[C@@H]21 | 5.83
Cc1cc(OCc2cnnn2-c2cccc(Br)c2COc2cccc(Br)c2)c(C)c2c1CC[C@H]1[C@H](C)C(=O)O[C@@H]21 | 14.2
CCCOc1ccc(-n2nncc2COc2cc(C)c3c(c2C)[C@@H]2OC(=O)[C@@H](C)[C@@H]2CC3)cc1Cl | 7.14
Cc1cc(OCc2cnnn2-c2ccc(Cl)nc2)c(C)c2c1CC[C@H]1[C@H](C)C(=O)O[C@@H]21 | 20.8
Cc1cc(OCc2cnnn2/C=C/c2ccccc2)c(C)c2c1CC[C@H]1[C@H](C)C(=O)O[C@@H]21 | 95.1
Cc1cc(OCc2cnnn2-c2cccc(C(N)=O)c2)c(C)c2c1CC[C@H]1[C@H](C)C(=O)O[C@@H]21 | 28.4
Cc1cc(OCc2cnnn2-c2ccccc2C(F)(F)F)c(C)c2c1CC[C@H]1[C@H](C)C(=O)O[C@@H]21 | 7.14
CC1=C2[C@H]3OC(=O)[C@@H](C)[C@@H]3CC[C@@]2(C)C=CC1=O | -40.2
Cc1cc(OCc2cnnn2-c2cccc(I)c2)c(C)c2c1CC[C@H]1[C@H](C)C(=O)O[C@@H]21 | 15.8
Cc1cc(OCc2cnnn2-c2cccc([N+](=O)[O-])c2)c(C)c2c1CC[C@H]1[C@H](C)C(=O)O[C@@H]21 | 93.9
COc1ccc2cc(-n3nncc3COc3cc(C)c4c(c3C)[C@@H]3OC(=O)[C@@H](C)[C@@H]3CC4)ccc2c1 | 93.9

###

Entries and their inhibition at 10 µM
Test: Immunosuppressive activity in Balb/c mouse T cells assessed as inhibition of concanavalin A-induced cell proliferation at 10^-5 M after 48 hrs by MTT assay
Format: functional

chemical_string | inhibition at 10 µM
Cc1cc(OCc2cnnn2-c2cccc(I)c2)c(C)c2c1CC[C@H]1[C@H](C)C(=O)O[C@@H]21 | 20%
Cc1cc(OCc2cnnn2-c2cc(F)ccc2I)c(C)c2c1CC[C@H]1[C@H](C)C(=O)O[C@@H]21 | 31.4%
Cc1cc(O)c(C)c2c1CC[C@H]1[C@H](C)C(=O)O[C@@H]21 | 24.4%
C#CCOc1cc(C)c2c(c1C)[C@@H]1OC(=O)[C@@H](C)[C@@H]1CC2 | 1.21%
CCCOc1ccc(-n2nncc2COc2cc(C)c3c(c2C)[C@@H]2OC(=O)[C@@H](C)[C@@H]2CC3)cc1Cl | 27.1%
COc1cc(-n2nncc2COc2cc(C)c3c(c2C)[C@@H]2OC(=O)[C@@H](C)[C@@H]2CC3)cc(OC)c1OC | 14.7%
Cc1cc(OCc2cnnn2-c2ccc(C=O)cc2)c(C)c2c1CC[C@H]1[C@H](C)C(=O)O[C@@H]21 | 6.66%
Cc1cc(OCc2cnnn2-c2ccccc2C(F)(F)F)c(C)c2c1CC[C@H]1[C@H](C)C(=O)O[C@@H]21 | 30%
COc1ccc2cc(-n3nncc3COc3cc(C)c4c(c3C)[C@@H]3OC(=O)[C@@H](C)[C@@H]3CC4)ccc2c1 | 95.1%
Cc1cc(OCc2cnnn2-c2cccc(C(N)=O)c2)c(C)c2c1CC[C@H]1[C@H](C)C(=O)O[C@@H]21 | 29.5%
Cc1cc(OCc2cnnn2-c2cccc([N+](=O)[O-])c2)c(C)c2c1CC[C@H]1[C@H](C)C(=O)O[C@@H]21 | 93.9%
COc1ccc(F)c(-n2nncc2COc2cc(C)c3c(c2C)[C@@H]2OC(=O)[C@@H](C)[C@@H]2CC3)c1Br | 37.1%
Cc1cc(OCc2cnnn2-c2ccc(Br)c3ccccc23)c(C)c2c1CC[C@H]1[C@H](C)C(=O)O[C@@H]21 | 48.6%
Cc1cc(OCc2cnnn2-c2ccc3c(c2)OCO3)c(C)c2c1CC[C@H]1[C@H](C)C(=O)O[C@@H]21 | 45.3%
Cc1cc(OCc2cnnn2/C=C/c2ccccc2)c(C)c2c1CC[C@H]1[C@H](C)C(=O)O[C@@H]21 | 95.1%
Cc1cc(OCc2cnnn2-c2cc(F)c(F)cc2Br)c(C)c2c1CC[C@H]1[C@H](C)C(=O)O[C@@H]21 | 20%
Cc1ccc(I)cc1-n1nncc1COc1cc(C)c2c(c1C)[C@@H]1OC(=O)[C@@H](C)[C@@H]1CC2 | 20%

Hey, just so you know, these numbers are from ChEMBL document CHEMBL2311361.
